- Method summary: qHTS RealTime-Glo MT Cell Viability Assay in HEK293 cells - 8 hour (AID 1224887); note: nearly all actives have a fitted effect of over 50% in size
- Experimental parameters: RealTime-Glo luminescence; series mostly up to 76.8 µM
Results filed as inconclusive are left out. Active and inactive are the calls of the source. Calls come from the whole dose curve; as a rule, active = well fitted cell-killing curve with a large enough effect in the repeat runs; inconclusive = weak or mixed curves, or effect the other way; inactive = flat fitted curve, though single readings scatter.
Thanks in advance; please answer with one of these: 1 (yes) (active), 0 (no) (inactive)

Reference set, count: 6
| Molecule | Qualitative label |
| --- | --- |
| CCCCCCC(C)O (configuration not stated) | 0 (no) |
| C=CCOC(=O)C(=C)C | 0 (no) |
| OC[C@@H](O)[C@@H](O[C@@H]1O[C@H](CO)[C@H](O)[C@H](O)[C@H]1O)[C@H](O)[C@@H](O)CO | 0 (no) |
| CC/C(=C(/CC)c1ccc(O)cc1)c1ccc(O)cc1 | 1 (yes) |
| CCCCCCCC/C=C\CCCCCCCC(=O)O | 0 (no) |
| Clc1ccc(Sc2cc(Cl)c(Cl)cc2Cl)cc1 | 0 (no) |

Entry `C[C@]12CC[C@@H]3c4ccc(O)cc4CC[C@H]3[C@@H]1CC[C@H]2O` : call = ? 0 (no)

Identify the outcome logged in this assay for the molecule shown: `Cc1ccc(N)c([N+](=O)[O-])c1` 0 (no)

So what was the verdict on `O=C(O)CCCC(=O)O` in this test? 0 (no)

GET /call?item= `CC(=O)Oc1c(C)c(C)c2c(c1C)CC[C@@](C)(CCC[C@H](C)CCC[C@H](C)CCCC(C)C)O2` returns the recorded outcome of this test. 0 (no)

Recorded call for `CC/C=C\C/C=C\C/C=C\CCCCCCCC(=O)O` ? 0 (no)

Short answer needed: outcome of this test for `COc1cc([C@H]2Oc3cc([C@H]4Oc5cc(O)cc(O)c5C(=O)[C@@H]4O)ccc3O[C@@H]2CO)ccc1O` ? 0 (no)

What call does the record list for `IC(I)I` ? 0 (no)

Tell me the assay call for `C=C[C@@]1(C)CC(=O)[C@]2(O)[C@@]3(C)[C@@H](O)CCC(C)(C)[C@@H]3[C@H](O)[C@H](OC(C)=O)[C@@]2(C)O1` please. 0 (no)

Hey, what did the test say about `O=C(O)c1cc(=O)[nH]c(=O)[nH]1` ? 0 (no)

For `COC(=O)CC(=O)OC` , which call appears in the assay record? 0 (no)

What did this assay record as the result for `c1ccc2c(c1)[nH]c1ccccc12` ? 0 (no)

Name the outcome recorded for `CCC(=O)O[C@H]1[C@H](O[C@@H]2[C@@H](C)[C@H](O[C@H]3C[C@@](C)(OC)[C@@H](O)[C@H](C)O3)[C@@H](C)C(=O)O[C@H](CC)[C@@](C)(O)[C@H](O)[C@@H](C)C(=O)[C@H](C)C[C@@]2(C)O)O[C@H](C)C[C@@H]1N(C)C` in the assay. 0 (no)

----------
- System name: Peroxisome proliferator-activated receptor delta (Homo sapiens)
- Method summary: qHTS assay to identify small molecule agonists of the peroxisome proliferator-activated receptor delta (PPARd) signaling pathway (AID 743212);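 note: HEK293H cells with PPARd UAS beta-lactamase reporter GeneBLAzer system; % is set by controls: 0 for no effect and ±100 for the full control effect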
- Experimental parameters: HEK293H PPARd-UAS-bla, beta-lactamase FRET ratio, 17 h; series mostly up to 62.6 µM
Records with an inconclusive call do not appear. Activity calls are given as the source filed them. Calls come from the whole dose curve.
Metric name: outcome

The examples below pair each entry with its known result.
| Compound | outcome |
| --- | --- |
| COc1ccc(C(=O)c2ccccc2O)c(O)c1 | inactive |
| Cc1ccc(N)c([N+](=O)[O-])c1 | inactive |
| CC(C)(C)c1cccc(C(C)(C)C)c1O | inactive |
| CC(C)(Oc1ccc(Cl)cc1)C(=O)O | inactive |
| COCCOCCOCCO | inactive |

I'm hoping you can list outcome for every compound here, please.
1. O=C(O)COCCN1CCN(C(c2ccccc2)c2ccc(Cl)cc2)CC1 (centres undefined)
2. Oc1c(Cl)ccc(Cl)c1Cl
3. CCC/C=C/C=O
4. CCOC(=O)C(C)Oc1ccc(Oc2cnc3cc(Cl)ccc3n2)cc1 (centres undefined)
5. Cc1ccc(C(C)(C)C)cc1
6. Brc1nc2ccccc2s1

["inactive", "inactive", "inactive", "inactive", "inactive", "inactive"]

Return reported outcome values for all items listed beneath this line.
1. C=C[C@H]1CN2CC[C@H]1C[C@H]2[C@H](O)c1ccnc2ccc(OC)cc12
2. COC(=O)c1ccc(C)cc1
3. Cc1ccc(S(=O)(=O)NCl)cc1

["inactive", "inactive", "inactive"]

----------
- Method summary: qHTS assay to identify small molecule agonists of H2AX (AID 1224845); note: potency is the fitted concentration of half-maximal effect
- Experimental parameters: CHO-K1 phospho-H2AX Ser139 HTRF, 3 h; series mostly up to 154 µM
Results filed as inconclusive are left out. Active and inactive are the calls of the source. Calls follow the shape of the dose curve; as a rule, active = well fitted activation curve with a large enough effect in the signal ratio in the repeat runs (not every such curve was filed as active); inconclusive = weak or mixed curves; inactive = flat fitted curve, though single readings scatter; the % refers to the signal ratio.
Metric name: Potency

Recorded results for 6 compounds are shown here.
| Compound | Measured |
| --- | --- |
| CCC(=O)O[C@H]1[C@H](O[C@@H]2[C@@H](C)[C@H](O[C@H]3C[C@@](C)(OC)[C@@H](O)[C@H](C)O3)[C@@H](C)C(=O)O[C@H](CC)[C@@](C)(O)[C@H](O)[C@@H](C)C(=O)[C@H](C)C[C@@]2(C)O)O[C@H](C)C[C@@H]1N(C)C | inactive |
| C=CN1CCCC1=O | inactive |
| COC(=O)CC(=O)OC | inactive |
| CN(C)C | inactive |
| CCCCCC1C(=O)CCC1CC(=O)OC (configuration not stated) | inactive |
| O=C1OC2(c3ccccc31)c1cc(I)c(O)c(I)c1Oc1c2cc(I)c(O)c1I | 51.1 µM (active) |

Kindly note the recorded Potency for `Cc1ccc(N)c([N+](=O)[O-])c1` , which is inactive

----------
- Method summary: qHTS assay to test for compound auto fluorescence at 535 nm (green) in HEK293 cell free culture (AID 720682); note: % is set by controls: 0 for no effect and ±100 for the full control effect
- Experimental parameters: cell-free medium, green autofluorescence 485/535 nm; series mostly up to 91.3 µM
Active and inactive are the calls of the source. Calls come from the whole dose curve; as a rule, active = well fitted curve in the direction sought with a large enough effect in the repeat runs; inconclusive = weak or mixed curves; inactive = flat fitted curve, though single readings scatter.
Metric name: outcome

Examples with answers:
| Compound | outcome |
| --- | --- |
| OC[C@H]1O[C@@H]2O[C@H]3[C@H](O)[C@@H](O)[C@@H](O[C@H]4[C@H](O)[C@@H](O)[C@@H](O[C@H]5[C@H](O)[C@@H](O)[C@@H](O[C@H]6[C@H](O)[C@@H](O)[C@@H](O[C@H]7[C@H](O)[C@@H](O)[C@@H](O[C@H]1[C@H](O)[C@H]2O)O[C@@H]7CO)O[C@@H]6CO)O[C@@H]5CO)O[C@@H]4CO)O[C@@H]3CO | inactive |
| CCCCCC1C(=O)CCC1CC(=O)OC (stereo not given) | inactive |
| CNC[C@H](O)c1ccc(O)c(O)c1 | inactive |
| CC(C)[N+](C)(CCOC(=O)C1c2ccccc2Oc2ccccc21)C(C)C | inactive |
| CC(=O)Nc1ccc2c(c1)Cc1cc(NC(C)=O)ccc1-2 | inactive |
| CC(C)(C)c1cccc(C(C)(C)C)c1O | inactive |
| C=C[C@H]1CN2CC[C@H]1C[C@@H]2[C@@H](O)c1ccnc2ccc(OC)cc12 | inactive |
| [Na+] | inactive |
| CC(C)(Oc1ccc(Cl)cc1)C(=O)O | inactive |

# evaluate next
Per the records, this compound ( `O=C1CCc2ccccc2O1` ) has outcome equal to inactive

----------
- Method summary: qHTS assay for small molecule agonists of the p53 signaling pathway (AID 651631); note: nearly all actives have a fitted effect of over 15% in size
- Experimental parameters: HCT-116 p53RE-bla reporter, beta-lactamase FRET ratio, 16 h; series mostly up to 73.3 µM
Results filed as inconclusive are left out. Calls of active or inactive are those of the source. The call rests on the fitted dose curve.
Respond only with the outcome that fits, drawn from y (active), n (inactive)

| Molecular string | Qualitative label |
| --- | --- |
| Nc1cc(Cl)c(N)c(Cl)c1 | n |
| NCCS(=O)(=O)O | n |
| CCCCCCCCCCCCCO | n |

Could you please tell me the result logged for `CCCCCCCC/C=C\CCCCCCCC(=O)O` in this assay? n

In this assay, the call recorded for `COc1ccc(C(=O)c2ccccc2O)c(O)c1` was what? n

// outcome(item) with item = `Cc1ccc(C)c(O)c1` n

What was the test verdict on `C[C@]12C=CC(=O)C=C1CC[C@H]1[C@@H]3C[C@@H](O)[C@](O)(C(=O)CO)[C@@]3(C)C[C@H](O)[C@@]12F` ? n

Call for entry `c1ccc2c(c1)ccc1cc3c(ccc4ccccc43)cc12` : y

Which outcome did this test record for the molecule `NCCOCCO` ? n

Identify the outcome logged in this assay for the molecule shown: `O=S1(=O)CCCO1` n

What is the recorded call for this molecule in the test? `CCCCCCCCCCCCO` n

Dear all, I need the recorded test outcome for `CCO[Si](CCCNC(N)=O)(OCC)OCC` , thank you. n

Test call, this molecule: `CC(C)[N+](C)(CCOC(=O)C1c2ccccc2Oc2ccccc21)C(C)C` n

What classification did `c1ccc2cc3ccccc3cc2c1` end up with in this test? n
